Test system: Lefty1
Assay: Lefty1 protein binding to printed compounds – biochemical, small-molecule microarray, 635/667 nm fluorescence, primary screen (AID 1139)
Conditions: fluorescence 635/667, higher = more signal
Parameter threshold = 1. Response is YES when composite z-score meets or exceeds it, else NO.

Field: example entries. Status: answers known.
>  <molecule>
Cc1ccc(S[C@]2(C(=O)O)CC(=O)N(C3CCCCC3)[C@@H]2c2ccc(CO)cc2I)cc1

>  <class-name>
NO

$$$$
>  <molecule>
CC(=O)NCCCC[C@@H]1NC(=O)[C@@H]2C[C@H](C(=O)NCCCCCN)[C@H](c3ccc(O)cc3)N2C1=O

>  <class-name>
YES

$$$$
>  <molecule>
C=CCNC(=O)[C@@H]1[C@H]2C(=O)O[C@H](c3ccccc3)[C@H](c3ccccc3)N2[C@H](c2ccc(O)cc2)[C@@]12C(=O)N(C(=O)OCCOC)c1ccc(C#CC3=CCCCC3)cc12

>  <class-name>
NO

$$$$
>  <molecule>
COc1ccc(C(=O)Nc2ccc(CN3C(=O)[C@]4(O[C@H](CC(=O)N5Cc6ccccc6C[C@H]5CO)[C@@H]([Si](C)(C)c5ccc(OC)cc5)[C@@H]4C)c4ccccc43)cc2)cc1

>  <class-name>
YES

$$$$
>  <molecule>
COC(=O)c1c(CC[C@@H](CO)NC(=O)N2CCC[C@H]2Cn2cc(C3(O)CCCCC3)nn2)oc(C(C)=O)c1C(=O)OC

>  <class-name>
YES

$$$$

Attention now turns to another entry.
Exam item: Textbook exercise: given the entry C[N+](C)(C)CCCCCCNC(=O)[C@@H]1C[C@@H]2C(=O)N3CCC[C@H]3C(=O)N2[C@@H]1c1ccc(O)cc1 , state whether its composite z-score is greater than or equal to 1.
Marked response: YES

All values here come from PubChem BioAssay.
